# MEASURED_TARGET: Bile acid receptor (Homo sapiens) (UniProt Q96RI1)
# Sequence (Q96RI1 whole entry, looked up): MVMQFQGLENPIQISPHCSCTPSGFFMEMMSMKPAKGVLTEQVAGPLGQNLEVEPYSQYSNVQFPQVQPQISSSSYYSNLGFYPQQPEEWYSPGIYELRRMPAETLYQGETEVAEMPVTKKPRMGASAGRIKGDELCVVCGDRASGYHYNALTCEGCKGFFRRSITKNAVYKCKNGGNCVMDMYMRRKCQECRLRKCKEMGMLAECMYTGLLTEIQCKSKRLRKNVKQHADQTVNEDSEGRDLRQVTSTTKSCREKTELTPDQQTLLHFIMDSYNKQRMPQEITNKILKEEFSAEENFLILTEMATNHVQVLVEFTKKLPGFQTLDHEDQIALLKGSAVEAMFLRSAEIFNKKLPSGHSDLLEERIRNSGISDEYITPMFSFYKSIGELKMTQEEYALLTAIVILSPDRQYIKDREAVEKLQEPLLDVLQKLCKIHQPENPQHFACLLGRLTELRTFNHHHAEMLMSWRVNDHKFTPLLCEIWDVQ
# METHOD_NOTES: ATG_IR1_CIS: Attagene CIS-FACTORIAL HepG2 Assay for human Nuclear Receptor Subfamily 1 Group H Member 4 (NR1H4), IR1 submotif (AID 2282946)
# ASSAY_CONTEXT: IR1 reporter transcription, actives raise or lower the signal
The source made the active and inactive calls. The calls were made as follows: active = hit-call score of the fitted dose curve at least 0.9, where 1 is the maximum; inactive = score below 0.9.
Returns: one label drawn from label 1 (active), label 0 (inactive)

COMPOUND	LABEL_VALUE
OCCN1CN(CCO)CN(CCO)C1	label 0
c1cc2cccc3c4cccc5cccc(c(c1)c23)c54	label 0
CCCCCCCC(OC)OC	label 0
Cc1[nH]nc2c1N=C(c1ccccc1Cl)c1cc([N+](=O)[O-])ccc1N2	label 1
O=S(=O)(O)c1ccccc1	label 0
O=C1C=CC(=O)N1c1cccc(N2C(=O)C=CC2=O)c1	label 0
CCCCN(C)C	label 0
CCCCCCCCCCCC(=O)NCCCN(C)C	label 1

Prompt: Fill in: this test's call for `CCCCCCCCC(C)=O` is ___
Completion: label 0

Prompt: Follow-up item: `FC(F)(F)C(F)(F)C(F)(F)C(F)(F)I`
Completion: label 0

Prompt: Follow-up item: `O=C(F)C(F)(F)C(F)(F)C(F)(F)C(F)F`
Completion: label 0

Prompt: Follow-up item: CCCCC(CC)C(=O)OCCOCCOCCOCCOC(=O)C(CC)CCCC (stereo not drawn)
Completion: label 0

Prompt: Follow-up item: `C=CC(=O)OCCN(CC)CC`
Completion: label 0

Prompt: Follow-up item: `Nc1cc(Cl)c(-c2cc(Cl)c(N)cc2Cl)cc1Cl`
Completion: label 0

Prompt: Follow-up item: `CC1=CC(=O)c2ccccc2C1=O`
Completion: label 0

Prompt: Follow-up item: `O=S(=O)(c1ccc(OCc2ccccc2)cc1)c1ccccc1O`
Completion: label 1

====

# MEASURED_TARGET: rat Peripheral-type Benzodiazepine Receptor (PBR), Tspo (gene 24230) (UniProt P16257)
# Sequence (P16257 whole entry, looked up): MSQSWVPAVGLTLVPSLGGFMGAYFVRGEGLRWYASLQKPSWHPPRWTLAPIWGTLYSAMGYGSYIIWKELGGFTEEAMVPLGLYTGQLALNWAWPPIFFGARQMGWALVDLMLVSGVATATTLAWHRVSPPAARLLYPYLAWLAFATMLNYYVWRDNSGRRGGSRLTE
# METHOD_NOTES: NVS_MP_rPBR: NovaScreen (NVS) Membrane Protein Assay for rat Peripheral-type Benzodiazepine Receptor (PBR) (AID 2283335)
Records with an inconclusive call do not appear. Calls of active or inactive are those of the source. Rule for the calls: active = hit-call score of the fitted dose curve at least 0.9, where 1 is the maximum; inconclusive = response in the unintended direction; inactive = score below 0.9.
MEASURED_ATTRIBUTE: AC50

These recorded examples may help you get a feel for the data.
1. CCCCCc1ccc(O)cc1 inactive
2. CCCCCCCC(OC)OC inactive
3. c1cnc2c(c1)ccc1cccnc12 inactive
4. CCCCc1oc2ccccc2c1C(=O)c1cc(I)c(OCCN(CC)CC)c(I)c1 10.9 µM (active)

# evaluate next
Prompt: What does the data say about its AC50? Entry: `O=C(NCc1ncc(C(F)(F)F)cc1Cl)c1c(Cl)cccc1Cl`
Completion: 0.005 µM (active)

====

# METHOD_NOTES: BSK_LPS_PGE2: BioMAP Diversity Plus: LPS Assay for Prostaglandin E2 (PGE2) Biomarker Activity (AID 2283082);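 as to AC50: secreted prostaglandin E2 measured by ELISA in LPS-stimulated co-culture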
# ASSAY_CONTEXT: primary human HUVEC with PBMC; actives raise or lower the signal
The source made the active and inactive calls. The calls were made as follows: active = hit-call score of the fitted dose curve at least 0.9, where 1 is the maximum; inactive = score below 0.9.
MEASURED_ATTRIBUTE: AC50

These recorded examples may help you get a feel for the data.
1. COCN(COC)c1nc(N(COC)COC)nc(N(COC)COC)n1 inactive
2. CCCCC=O inactive
3. Cc1cccc2c1ccc1ccccc12 inactive
4. C[C@]12CC[C@@H]3c4ccc(O)cc4CC[C@H]3[C@@H]1C[C@@H](O)[C@@H]2O inactive

# evaluate next
Prompt: What does the data say about its AC50? Entry: `CCCCCc1ccc(O)cc1`
Completion: 1.39 µM (active)
